- Substrate: O=C(O)C(=O)CC(O)C(=O)O
- PROCEDURE DETAILS: purified protein
- Format: biochemical, Homo sapiens
- CONDITION SUMMARY: racemic HOG, 100 mM TRIS pH 8.5, 37°C, aldol cleavage
Exercise: state measured kcat for each of the proteins provided.

What does the record list as kcat for human HOGA (hHOGA) (Homo sapiens; S198T) (protein, His-tag (WT, Y140F) cleavable by PreScission leaving GPH, 33,097 Da tag-free; S77, N78 and S198 mutants as MBP fusion, MBP cleaved; tetramer) ASGEGKKVDIAGIYPPVTTPFTATAEVDYGKLEENLHKLGTFPFRGFVVQGSNGEFPFLTSSERLEVVSRVRQAMPKNRLLLAGSGCESTQATVEMTVSMAQVGADAAMVVTPCYYRGRMSSAALIHHYTKVADLSPIPVVLYSVPANTGLDLPVDAVVTLSQHPNIVGMKDTGGDVTRIGLIVHKTRKQDFQVLAGSAGFLMASYALGAVGGVCALANVLGAQVCQLERLCCTGQWEDAQKLQHRLIEPNAAVTRRFGIPGLKKIMDWFGYYGGPCRAPLQELSPAEEEALRMDFTSNGWL ?
7.8 s⁻¹

Likewise for human HOGA (hHOGA) (Homo sapiens; S198A) (protein, His-tag (WT, Y140F) cleavable by PreScission leaving GPH, 33,097 Da tag-free; S77, N78 and S198 mutants as MBP fusion, MBP cleaved; tetramer) ASGEGKKVDIAGIYPPVTTPFTATAEVDYGKLEENLHKLGTFPFRGFVVQGSNGEFPFLTSSERLEVVSRVRQAMPKNRLLLAGSGCESTQATVEMTVSMAQVGADAAMVVTPCYYRGRMSSAALIHHYTKVADLSPIPVVLYSVPANTGLDLPVDAVVTLSQHPNIVGMKDAGGDVTRIGLIVHKTRKQDFQVLAGSAGFLMASYALGAVGGVCALANVLGAQVCQLERLCCTGQWEDAQKLQHRLIEPNAAVTRRFGIPGLKKIMDWFGYYGGPCRAPLQELSPAEEEALRMDFTSNGWL ?
2.4 s⁻¹
